Biological target: Tyro-3 (h) (Homo sapiens, UniProt Q06418)
Sequence (Q06418 41-890): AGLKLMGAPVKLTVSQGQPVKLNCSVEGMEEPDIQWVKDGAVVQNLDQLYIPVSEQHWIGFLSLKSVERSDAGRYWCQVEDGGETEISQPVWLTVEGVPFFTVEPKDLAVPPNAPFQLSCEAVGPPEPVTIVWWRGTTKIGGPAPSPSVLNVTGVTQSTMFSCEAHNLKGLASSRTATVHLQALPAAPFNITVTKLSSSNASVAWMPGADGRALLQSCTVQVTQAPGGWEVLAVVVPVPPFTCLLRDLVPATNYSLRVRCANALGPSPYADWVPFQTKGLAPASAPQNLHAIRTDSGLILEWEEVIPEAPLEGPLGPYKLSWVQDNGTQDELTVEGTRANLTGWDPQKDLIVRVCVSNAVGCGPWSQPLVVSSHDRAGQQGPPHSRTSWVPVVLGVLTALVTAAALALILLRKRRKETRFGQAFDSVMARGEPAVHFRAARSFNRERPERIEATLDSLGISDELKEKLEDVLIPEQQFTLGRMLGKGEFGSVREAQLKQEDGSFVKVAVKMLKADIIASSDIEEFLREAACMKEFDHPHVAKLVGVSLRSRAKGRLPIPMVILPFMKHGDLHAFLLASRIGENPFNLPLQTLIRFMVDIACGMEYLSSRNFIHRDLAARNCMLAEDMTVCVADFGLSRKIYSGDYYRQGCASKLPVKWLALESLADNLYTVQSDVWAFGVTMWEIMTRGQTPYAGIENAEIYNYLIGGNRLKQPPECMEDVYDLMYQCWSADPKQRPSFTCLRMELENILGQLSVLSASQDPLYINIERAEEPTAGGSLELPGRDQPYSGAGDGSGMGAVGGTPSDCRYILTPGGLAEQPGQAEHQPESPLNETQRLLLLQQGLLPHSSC
Measured IC50 of individual entries
ASSAY_ENDPOINT: IC50 (µM)

>>> quantitative_readout("COc1cc2nccc(Oc3ccc(NC(=O)c4cn(CC5CC[S+]([O-])CC5)cc(-c5ccc(C)cc5)c4=O)nc3)c2cc1OC (stereo not drawn)")
0.117
>>> quantitative_readout("COc1cc2nccc(Oc3ccc(NC(=O)c4nn(C5CCOCC5)cc(-c5ccc(C)cc5)c4=O)cc3F)c2cc1OC")
0.037
>>> quantitative_readout("COc1cc2nccc(Oc3ccc(NC(=O)c4cn(CC5CCOCC5)cc(-c5ccc(C)cc5)c4=O)nn3)c2cc1OC")
0.212
>>> quantitative_readout("COc1cc2nccc(Oc3cnc(NC(=O)c4nn(C5CCOCC5)cc(-c5ccc(F)cc5)c4=O)nc3)c2cc1OC")
0.023
>>> quantitative_readout("COc1cc2nccc(Oc3cnc(NC(=O)c4cn(C5CCOCC5)cc(-c5ccc(C)cc5)c4=O)nc3)c2cc1OC")
0.084
>>> quantitative_readout("COc1cc2nccc(Oc3cnc(NC(=O)c4cn(CC5CCOCC5)cc(-c5ccc(C)cc5)c4=O)nc3)c2cc1OC")
0.178
>>> quantitative_readout("COc1cc2nccc(Oc3ccc(NC(=O)c4cc(CC5CCOCC5)cn(-c5ccc(F)cc5)c4=O)nc3)c2cc1OC")
0.035
>>> quantitative_readout("Cc1ccc(-c2cn(C3CCOCC3)nc(C(=O)Nc3ccc(Oc4ccnc5cc6c(cc45)OCO6)cn3)c2=O)cc1")
0.321
>>> quantitative_readout("COc1cc2nccc(Oc3ccc(NC(=O)c4nn(CC5CCOCC5)cc(-c5ccc(C)cc5)c4=O)nc3)c2cc1OC")
0.013
